Would you kindly list SARS-CoV-2 infection rate for each of these compounds?
tested on: Vero E6 infected with SARS-CoV-2; assay: SARS-CoV-2 infection rate relative to infected DMSO; higher = more infection, active = 60 or less; details: 24 h
Give bare numbers, in %.

In the examples that follow, each entry is paired with its recorded SARS-CoV-2 infection rate.
INSERT INTO results (compound, assay_readout, meas_value) VALUES
  ('CC1(C)Oc2ccc(C#N)cc2[C@H](N(Cc2ncc[nH]2)c2ccc(Cl)cc2)[C@H]1O (10 µM)', 'SARS-CoV-2 infection rate', 81),
  ('CC(C)Nc1cccnc1N1CCN(C(=O)c2cc3cc(NS(C)(=O)=O)ccc3[nH]2)CC1 [delavirdine] (10 µM)', 'SARS-CoV-2 infection rate', 110);

I'm hoping you can list SARS-CoV-2 infection rate for every compound here, please.
1. CN(C[C@@H]1COCCO1)S(=O)(=O)Nc1ccc2ccc3ncc(-c4cnn(C)c4)cc3c(=O)c2c1 (0.833333 µM)
2. C[C@@H]1O[C@@H](O[C@H]2[C@H](Oc3cc(O)c(C(=O)CCc4ccc(O)cc4)c(O)c3)O[C@H](CO)[C@@H](O)[C@@H]2O)[C@H](O)[C@H](O)[C@H]1O [naringin-dihydrochalcone] (10 µM)
3. C#C[C@]1(O)CC[C@H]2[C@@H]3CCc4cc(O)ccc4[C@H]3CC[C@@]21C (10 µM)
4. CC(C)N(CCC(C(N)=O)(c1ccccc1)c1ccccn1)C(C)C (configuration not stated) [disopyramide] (10 µM)
5. O=C(O)CN1C(=O)c2cccc3cccc(c23)C1=O [alrestatin] (10 µM)

1. 111
2. 107
3. 102
4. 104
5. 106
